System: A549/ATCC NSCLC
test_summary: NCI-60 one-dose screen, 48 h (100 = growth as untreated, 0 = no growth, -100 = all killed)
experimental_context: 10 µM unless noted
Compounds without any hit were thinned out: in the full panel of roughly 83,000, 20% have a hit.
So basically: is growth under 80%? Then Satisfied. Not under? Then Not satisfied.

• Cn1cc(-c2noc(C(=O)c3cn(C)c4ncccc34)n2)c2ccccc21 = Not satisfied
• C[C@@H]1C[C@H]2C(=O)O[C@@H](C)[C@H](NC(=O)[C@H](Cc3cc(F)cc(F)c3)NC(=O)Nc3ccc(Cl)cc3F)C(=O)N3C[C@H](O)C[C@H]3C(=O)N3CCN(C)C[C@H]3C(=O)N[C@@H](C)C(=O)N2C1 = Satisfied
• Clc1ccc2nc(-c3ccc(-c4ccc(/C=N/NC5=NCCN5)cc4)s3)cn2c1 = Not satisfied
• Nc1nc(SCc2cccc([N+](=O)[O-])c2)c2[nH]cnc2n1 = Not satisfied
• CCOC(=O)c1cc(C(=O)c2ccc(OC)c(OC)c2)n2ccc(-c3ccccn3)cc12 = Satisfied
• COc1cc2c(c(OC)c1)C1c3cc(OC)ccc3NC(=O)N1CC2 (configuration not stated) = Satisfied

###

System: M14 melanoma
test_summary: NCI-60 one-dose screen, 48 h
experimental_context: 10 µM unless noted
About 83,000 compounds went through this panel and 20% of them were active in at least one assay; those are over-represented in the sample as a whole. Active and inactive are the calls of the source. The calls were made as follows: active = growth percent below 10; inactive = the rest.
Labels: active, inactive

- CCCc1cc2cc(-n3nc(C)c4c3CC(C)(C)CC4=O)cc(NC3CCSCC3)c2c(=O)[nH]1: inactive
- CN(C)CCCNc1nc(-c2cccc(C(Cl)(Cl)Cl)c2)nc(C(Cl)(Cl)Cl)n1: inactive
- CSc1nc(N)c(N=Nc2ccc(S(=O)(=O)Nc3nnc(C)s3)cc2)c(=O)[nH]1: inactive
- COc1cc(C(=O)/C=C/c2c(-c3ccc(F)cc3)nc3sccn23)cc(OC)c1OC: inactive
- Cc1ccc(S(=O)(=O)Nc2ccccc2)cc1N: inactive
- COc1cccc(-c2[nH]c(=S)ncc2C(=O)c2ccccc2)c1: inactive
- O=C1NC(=O)C(Cc2ccccc2)(Cc2ccccc2)N1: inactive
- CN(C)Cc1ccc[nH]1: inactive
- O=C(CCNCc1ccccc1)c1ccccc1: inactive
- C[C@@H](NC(=O)[C@@H](CC(=O)N1CCC(N2CCCCC2)CC1)N1C(=O)[C@@H](N2C(=O)OC[C@@H]2c2ccccc2)[C@H]1/C=C/c1cccc(Cl)c1)c1ccccc1: active
- O=C1COCCN1c1ccc(NCc2cn(Cc3cccc4ccccc34)c3ccccc23)cc1: inactive
- COc1ccc(/C=C/C=C\C(=O)c2ccc(-n3ccnc3)cc2)cc1: inactive
- C=C(C)[C@@H]1CC[C@]2(C(=O)OC)CC[C@]3(C)[C@H](CC[C@@H]4[C@@](C)(CCc5nn[nH]n5)[C@H](C(=C)C)CC[C@]43C)[C@@H]12: active
- CCOC(=O)c1nn(C2CCCCO2)c2ccc(NC(=O)Cn3nnc4ccccc43)cc12 (centres undefined): inactive

###

Tested on: HS 578T breast
test_summary: NCI-60 one-dose screen, 48 h
experimental_context: 10 µM unless noted
This is part of a sample that, as a whole, favours compounds with a hit. Of some 83,000 tested, about 20% had one in any assay. The source made the active and inactive calls. How the source made its calls: active means growth percent below 10; inactive means the rest.
Labels: class 1 = active, class 0 = inactive

- CSc1nc(N)c(N=Nc2ccc(S(=O)(=O)Nc3nnc(C)s3)cc2)c(=O)[nH]1: class 0
- O=C(CSc1nc2ccc([N+](=O)[O-])cc2[nH]1)Nc1ccc(F)c(Cl)c1: class 0
- N=C(N)c1ccc(-c2ccc(-c3ccc(-c4cccs4)s3)s2)cc1F: class 0
- Cn1cc(-c2noc(C(=O)c3cn(C)c4ncccc34)n2)c2ccccc21: class 0
- Cc1ccc(-c2cc(-c3ccc(C)cc3)nc(N3CCN(CCNc4ccnc5cc(Cl)ccc45)CC3)n2)cc1: class 1
- CC(C)OC(=O)Nc1cc(F)ccc1F: class 0
- OC(c1ccc(Cl)cc1)(c1ccc(Cl)cc1)C(O)(c1ccc(Cl)cc1)c1ccc(Cl)cc1: class 0
- CCc1ccc(C2=C/C(=C/c3ccccc3)C(=O)N2CCc2ccc(S(N)(=O)=O)cc2)cc1: class 0
- CCCCCCNC(=O)Nc1ncnc2c1ncn2-c1ccccc1: class 0
- CCCCNC(=O)NS(=O)(=O)Cc1ccccc1: class 0
- O=C(O)c1cccc(CN2CCN(c3cc4c(cc3F)c(=O)c(C(=O)O)cn4C3CC3)CC2)c1O: class 0
- COc1cc(NCc2ccccc2O)c2ncccc2c1: class 0
- Cn1cc(-c2noc(-c3cn(C)c4ncc(F)cc34)n2)c2ccccc21: class 0
- C[C@H]1[C@H](C)CC[C@]2(C(=O)O)CC[C@]3(C)C(=CC[C@@H]4[C@@]5(C)C/C(=C/c6cccnc6)[C@H](O)C(C)(C)[C@@H]5CC[C@]43C)[C@H]12: class 1
- CCOC(=O)C(c1ccccc1)N1C(=O)c2ccccc2C1=O (stereo not drawn): class 0
- CC/C=C(\C)C(CCC)(CN=O)C(=O)OCC (stereo not drawn): class 0
- CCCN1CC(c2ccc(OC)c(OC)c2)=C(c2cn(C(=O)OCC)c3ccccc23)C1=O: class 0
- O=C1/C(=C\c2cn(CC(O)CN3CCCCC3)c3ccccc23)c2ccccc2N1c1c(Cl)cccc1Cl (stereo not drawn): class 1
- O=[N+]([O-])c1ccc(O)c(-c2nc3ccccc3s2)c1: class 0
- O=C(Nc1ccc(Cl)c(C(F)(F)F)c1)Nc1ccc(-c2cccnc2)cc1N1CCC(CO)CC1: class 0
- C#C[C@]1(O)CC[C@H]2[C@@H]3CC=C4c5nc(Nc6ccccn6)sc5CC[C@]4(C)[C@H]3CC[C@@]21C: class 1
- C#C[C@]1(O)CC[C@H]2[C@@H]3CC=C4c5nc(N)sc5CC[C@]4(C)[C@H]3CC[C@@]21C: class 1
- C=C(C)[C@@H]1CC[C@]2(C(=O)NCCCCCCN(CCCN)CCCN)CC[C@]3(C)[C@H](CC[C@@H]4[C@@]5(C)CC[C@H](OCCCN)C(C)(C)[C@@H]5CC[C@]43C)[C@@H]12: class 0

###

Tested on: UACC-62 melanoma
test_summary: NCI-60 one-dose screen, 48 h
experimental_context: 10 µM unless noted
The panel holds about 83,000 compounds, 20% with a hit somewhere; the sample as a whole holds those more often. The source made the active and inactive calls. Rule for the calls: active = growth percent below 10; inactive = the rest.
Labels: active, inactive

* Cc1cnc(N)nc1OCC(C)(C)CNC(=O)c1cccc(-c2ccc(S(=O)(=O)Nc3ccc4c(c3)N(C(=O)C3CC3)CCC4)cc2)c1 | inactive
* COc1cc(OC)c(/C=C/C(=O)c2c(N)cc(OC)cc2OC)c(OC)c1 | active
* COc1ccc(-c2cc(-c3ccc(Cl)cc3)nc(SCCCCCCC(=O)NO)n2)cc1 | inactive
* Cc1ccc(S(=O)(=O)NCCCNc2nccc(-c3c(-c4cccc(F)c4)nc4occn34)n2)cc1 | inactive
* O=C(CCNCc1ccccc1)c1ccccc1 | inactive
* COc1ccc(NCc2cn(-c3ccc(C(=O)O)cc3)nc2-c2ccc(C(=O)O)cc2)cc1C(F)(F)F | inactive

###

Test system: LOX IMVI melanoma
test_summary: NCI-60 one-dose screen, 48 h
experimental_context: 10 µM unless noted
The panel holds about 83,000 compounds, 20% with a hit somewhere; the sample as a whole holds those more often. Activity calls are given as the source filed them. Rule for the calls: active = growth percent below 10; inactive = the rest.
Labels: TRUE = active, FALSE = inactive

* C=C(C)[C@@H]1CC[C@]2(C(N)=O)CC[C@]3(C)[C@H](CC[C@@H]4[C@@]5(C)C/C(=C/c6cccnc6)C(=O)C(C)(C)[C@@H]5CC[C@]43C)[C@@H]12 | TRUE
* O=S(=O)(/N=c1/n(-c2ccccc2)nc2n1CCN2C1=NCCN1)c1ccc(-c2ccccc2)cc1 | FALSE
* CCN1CCN(CC(=O)Nc2nc3ccc(NCc4ccc(Cl)cc4)cc3s2)CC1 | FALSE
* CCOC(=O)c1c[nH]c2cc(OCC3CC3)c(OCC3CC3)cc2c1=O | FALSE
* Cn1cc(-c2nnc(-c3cn(C)c4ncccc34)o2)c2ccccc21 | FALSE
* C[C@H]1[C@H](C)CC[C@]2(C(=O)N3CCN(C)CC3)CC[C@]3(C)C(=CC[C@@H]4[C@@]5(C)C/C(=C/c6ccco6)C(=O)C(C)(C)[C@@H]5CC[C@]43C)[C@H]12 | TRUE
* CCOC(=O)COc1c(C)cc(SSc2cc(C)c(OCC(=O)OCC)c(C)c2)cc1C | FALSE
* Cc1ccc(S(=O)(=O)n2cc(C(=O)C(=O)N3CCCCC3)c3ccccc32)cc1 | FALSE
* C=C(C)[C@@H]1CC[C@]2(C)[C@H](CC[C@@H]3[C@@H]([C@@](C)(O)CCC=C(C)C)CC[C@]32C)[C@@]1(C)CCC(=O)O | TRUE
